# Lookup of reported inhibition at 25 µM keyed by entry
- target-of-assay: DENV-2 protease (Dengue virus type 2, UniProt P14340)
- Construct: expression plasmids pQE30-NS2BH(QR)-NS3pro and WNV clone 107, respectively; made in house; host or cells: E. coli TOP10F' cells
- Sequence (P14340 1476-1653): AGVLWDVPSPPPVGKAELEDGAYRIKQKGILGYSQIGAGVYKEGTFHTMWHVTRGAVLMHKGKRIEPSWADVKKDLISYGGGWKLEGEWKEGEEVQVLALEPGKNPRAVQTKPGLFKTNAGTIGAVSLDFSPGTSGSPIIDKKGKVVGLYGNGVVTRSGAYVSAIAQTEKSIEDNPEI
- assay-method-text: In vitro protease assay, DENV-2 NS2B-NS3pro
- Format: biochemical, Dengue virus serotype 2
- condition-set: 25 μM inhibitor; read-out: % Inhib. DENV 2 Protease at 25 μM

compound-structure	target-of-assay	unit-abbrev	inhibition at 25 µM
COCc1cc(C)nc(SCC(=O)c2ccc(O)c(O)c2)c1C#N	DENV-2 protease (Dengue virus type 2, UniProt P14340)	%	89
Cc1ccc(C2=NC(=O)/C(=C/c3cc(O)c(O)c(Br)c3)S2)cc1	DENV-2 protease (Dengue virus type 2, UniProt P14340)	%	94
Cc1sc2nc(SCC(=O)c3ccc(O)c(O)c3)[nH]c(=O)c2c1C	DENV-2 protease (Dengue virus type 2, UniProt P14340)	%	92

###

- target-of-assay: WNV protease (West Nile virus, UniProt Q9Q6P4)
- Construct: purified viral protease NS2B-N53-pro from DENV-2 or WNV; made in house; host or cells: E. coli TOP10F' cells
- Sequence (Q9Q6P4 1506-1683): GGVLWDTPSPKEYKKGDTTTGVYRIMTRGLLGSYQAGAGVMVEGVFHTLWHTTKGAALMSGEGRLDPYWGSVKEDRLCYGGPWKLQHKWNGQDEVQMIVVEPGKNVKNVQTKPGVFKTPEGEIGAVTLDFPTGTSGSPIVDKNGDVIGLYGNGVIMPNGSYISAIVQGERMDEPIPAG
- Sequence (Q9Q6P4 1375-1505): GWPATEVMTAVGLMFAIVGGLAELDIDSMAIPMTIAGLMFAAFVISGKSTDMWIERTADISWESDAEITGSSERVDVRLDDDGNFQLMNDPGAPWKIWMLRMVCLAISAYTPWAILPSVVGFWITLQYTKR
- assay-method-text: In vitro protease assay, WNV NS2B-NS3pro
- Format: biochemical
- condition-set: read-out: % Inhib. WNV Protease at 25 μM
- Method: DENV-2 and WNV proteases were expressed from 2 L cultures of TOP10F′ cells (Invitrogen; Carlsbad, Calif.) transformed with expression plasmids pQE30-NS2BH(QR)-NS3pro and WNV clone 107, respectively. Cultures were grown in LB medium supplemented with ampicillin (100 μg/mL) and 0.1% glucose at 37° C. until the OD600 reached 0.6-0.7. […] Compound I, Compound II, Compound III, Compound IV, Compound V, Compound VI, and Compound VII were analyzed by in vitro protease assays. […]
# Lookup of reported inhibition at 25 µM keyed by entry

compound	target-of-assay	unit-abbrev	inhibition at 25 µM
COCc1cc(C)nc(SCC(=O)c2ccc(O)c(O)c2)c1C#N [Compound I]	WNV protease (West Nile virus, UniProt Q9Q6P4)	%	95
O=C(OC[C@H]1OC(OC(=O)c2cc(O)c(O)c(OC(=O)c3cc(O)c(O)c(O)c3)c2)C(OC(=O)c2cc(O)c(O)c(OC(=O)c3cc(O)c(O)c(O)c3)c2)[C@@H](OC(=O)c2cc(O)c(O)c(OC(=O)c3cc(O)c(O)c(O)c3)c2)C1OC(=O)c1cc(O)c(O)c(OC(=O)c2cc(O)c(O)c(O)c2)c1)c1cc(O)c(O)c(OC(=O)c2cc(O)c(O)c(O)c2)c1 (stereo partly shown) [Compound VII, Tannic acid, reference compound]	WNV protease (West Nile virus, UniProt Q9Q6P4)	%	96
Cc1ccc(C(=O)c2cc(O)c(O)c([N+](=O)[O-])c2)cc1 [Compound VI, Tolcapone, reference compound]	WNV protease (West Nile virus, UniProt Q9Q6P4)	%	67
Cc1sc2nc(SCC(=O)c3ccc(O)c(O)c3)[nH]c(=O)c2c1C [Compound II]	WNV protease (West Nile virus, UniProt Q9Q6P4)	%	92

###

- target-of-assay: WNV protease (West Nile virus, UniProt Q9Q6P4)
- Construct: purified viral protease NS2B-N53-pro from DENV-2 or WNV; made in house; host or cells: E. coli TOP10F' cells
- assay-method-text: In vitro protease assay, WNV NS2B-NS3pro
- Type: biochemical
- condition-set: read-out: % Inhib. WNV Protease at 25 μM
assay-endpoint: inhibition at 25 µM (%)

compound-structure	result-number
Cc1ccc(C2=NC(=O)/C(=C/c3cc(O)c(O)c(Br)c3)S2)cc1	98
CCOC(=O)c1oc2c(O)c(O)ccc2c(=O)c1-c1cnn(-c2ccccc2)c1	95
O=c1c(Oc2ccccc2)c(C(F)(F)F)oc2c(O)c(O)ccc12	95

###

# Lookup of reported inhibition at 10 µM keyed by entry
- target-of-assay: DENV-2 protease (Dengue virus type 2, UniProt P14340)
- Construct: expression plasmids pQE30-NS2BH(QR)-NS3pro and WNV clone 107, respectively; made in house; host or cells: E. coli TOP10F' cells
- assay-method-text: In vitro protease assay, DENV-2 NS2B-NS3pro
- Assay type: biochemical, Dengue virus serotype 2
- condition-set: 10 μM inhibitor; read-out: % Inhib. DENV 2 Protease at 10 μM

compound	target-of-assay	inhibition at 10 µM, %
Cc1sc2nc(SCC(=O)c3ccc(O)c(O)c3)[nH]c(=O)c2c1C [Compound II]	DENV-2 protease (Dengue virus type 2, UniProt P14340)	57
CCOC(=O)c1oc2c(O)c(O)ccc2c(=O)c1-c1cnn(-c2ccccc2)c1 [Compound V]	DENV-2 protease (Dengue virus type 2, UniProt P14340)	75
COCc1cc(C)nc(SCC(=O)c2ccc(O)c(O)c2)c1C#N [Compound I]	DENV-2 protease (Dengue virus type 2, UniProt P14340)	51

###

- assay-method-text: Cell viability (CellTiter Glo) in Vero-WNV cells
- Assay type: cell-based
- condition-set: monkey, ATP production
# Lookup of reported CC50 at 24 h keyed by entry

compound-structure	CC50 at 24 h
Cc1ccc(C2=NC(=O)/C(=C/c3cc(O)c(O)c(Br)c3)S2)cc1	130 µM
CCOC(=O)c1oc2c(O)c(O)ccc2c(=O)c1-c1cnn(-c2ccccc2)c1	168 µM

###

- target-of-assay: DENV-2 protease (Dengue virus type 2)
- Construct: expression plasmids pQE30-NS2BH(QR)-NS3pro and WNV clone 107, respectively; made in house; host or cells: E. coli TOP10F' cells
- assay-method-text: In vitro protease assay, DENV-2 NS2B-NS3pro
- Format: biochemical, Dengue virus serotype 2
- condition-set: 10 μM inhibitor; read-out: % Inhib. DENV 2 Protease at 10 μM
# Lookup of reported inhibition at 10 µM keyed by entry
assay-endpoint: inhibition at 10 µM (%)

molecule	result-number
Cc1ccc(C2=NC(=O)/C(=C/c3cc(O)c(O)c(Br)c3)S2)cc1 [Compound III]	96
Cc1ccc(C(=O)c2cc(O)c(O)c([N+](=O)[O-])c2)cc1 [Compound VI, Tolcapone, reference compound]	90
O=c1c(Oc2ccccc2)c(C(F)(F)F)oc2c(O)c(O)ccc12 [Compound IV]	63
O=C(OC[C@H]1OC(OC(=O)c2cc(O)c(O)c(OC(=O)c3cc(O)c(O)c(O)c3)c2)C(OC(=O)c2cc(O)c(O)c(OC(=O)c3cc(O)c(O)c(O)c3)c2)[C@@H](OC(=O)c2cc(O)c(O)c(OC(=O)c3cc(O)c(O)c(O)c3)c2)C1OC(=O)c1cc(O)c(O)c(OC(=O)c2cc(O)c(O)c(O)c2)c1)c1cc(O)c(O)c(OC(=O)c2cc(O)c(O)c(O)c2)c1 (stereo partly shown) [Compound VII, Tannic acid, reference compound]	99

###

# Lookup of reported pIC50 keyed by entry
- target-of-assay: DENV-4 protease (Dengue virus type 4, UniProt P09866)
- Sequence (P09866 1475-1652): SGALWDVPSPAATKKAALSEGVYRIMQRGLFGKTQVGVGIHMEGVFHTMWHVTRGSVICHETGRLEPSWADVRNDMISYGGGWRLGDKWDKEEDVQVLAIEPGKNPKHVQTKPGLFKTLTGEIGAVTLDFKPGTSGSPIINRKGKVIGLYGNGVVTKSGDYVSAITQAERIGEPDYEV
- Sequence (P09866 1393-1439): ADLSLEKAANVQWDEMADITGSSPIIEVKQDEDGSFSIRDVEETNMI
pIC50: −log10 of the molar value.
assay-endpoint: pIC50

compound	assay-endpoint	result-number
CCOC(=O)c1oc2c(O)c(O)ccc2c(=O)c1-c1cnn(-c2ccccc2)c1 [Compound V]	pIC50	5.27
Cc1ccc(C2=NC(=O)/C(=C/c3cc(O)c(O)c(Br)c3)S2)cc1 [Compound III]	pIC50	5.41

###

- target-of-assay: WNV protease (West Nile virus, UniProt Q9Q6P4)
- Construct: purified viral protease NS2B-N53-pro from DENV-2 or WNV; made in house; host or cells: E. coli TOP10F' cells
- assay-method-text: In vitro protease assay, WNV NS2B-NS3pro
- Assay type: biochemical
- condition-set: read-out: % Inhib. WNV Protease at 10 μM
# Lookup of reported inhibition at 10 µM keyed by entry
assay-endpoint: inhibition at 10 µM

compound	result
O=c1c(Oc2ccccc2)c(C(F)(F)F)oc2c(O)c(O)ccc12 [Compound IV]	71%
Cc1ccc(C2=NC(=O)/C(=C/c3cc(O)c(O)c(Br)c3)S2)cc1 [Compound III]	98%
Cc1sc2nc(SCC(=O)c3ccc(O)c(O)c3)[nH]c(=O)c2c1C [Compound II]	45%
CCOC(=O)c1oc2c(O)c(O)ccc2c(=O)c1-c1cnn(-c2ccccc2)c1 [Compound V]	75%
O=C(OC[C@H]1OC(OC(=O)c2cc(O)c(O)c(OC(=O)c3cc(O)c(O)c(O)c3)c2)C(OC(=O)c2cc(O)c(O)c(OC(=O)c3cc(O)c(O)c(O)c3)c2)[C@@H](OC(=O)c2cc(O)c(O)c(OC(=O)c3cc(O)c(O)c(O)c3)c2)C1OC(=O)c1cc(O)c(O)c(OC(=O)c2cc(O)c(O)c(O)c2)c1)c1cc(O)c(O)c(OC(=O)c2cc(O)c(O)c(O)c2)c1 (stereo partly shown) [Compound VII, Tannic acid, reference compound]	98%
Cc1ccc(C(=O)c2cc(O)c(O)c([N+](=O)[O-])c2)cc1 [Compound VI, Tolcapone, reference compound]	99%
COCc1cc(C)nc(SCC(=O)c2ccc(O)c(O)c2)c1C#N [Compound I]	54%

// data source = patent US10471082B2
